Can you tell me koff for the items I'm about to list?
Target: T1, Rhesus-ICAM1 (rhesus, UniProt Q5NKV6 28-480, limits assumed)
T1 sequence (looked up): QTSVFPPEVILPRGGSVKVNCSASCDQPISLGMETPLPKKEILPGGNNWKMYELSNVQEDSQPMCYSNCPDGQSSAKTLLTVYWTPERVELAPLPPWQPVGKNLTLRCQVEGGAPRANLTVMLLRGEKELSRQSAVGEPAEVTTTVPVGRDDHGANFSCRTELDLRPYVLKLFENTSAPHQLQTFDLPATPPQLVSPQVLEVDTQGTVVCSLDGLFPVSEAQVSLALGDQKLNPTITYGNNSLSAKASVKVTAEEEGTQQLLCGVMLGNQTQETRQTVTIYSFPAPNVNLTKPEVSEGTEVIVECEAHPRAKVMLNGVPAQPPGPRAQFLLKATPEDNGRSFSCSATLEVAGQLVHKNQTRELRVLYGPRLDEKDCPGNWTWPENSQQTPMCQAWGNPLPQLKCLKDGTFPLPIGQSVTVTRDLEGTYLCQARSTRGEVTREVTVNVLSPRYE
Assay: SPR (Biacore 8K), antibody captured, antigen injected
The figure you give is taken to be in s⁻¹; do not add the unit.

[Q] Respond only with koff recorded for 15D10 (antibody, human IgG1, kappa, V domains shown, Rabbit-human chimeric anti-ICAM1: rabbit VH and VL on human IgG1 and kappa constant regions) VH: QSVEESGGRLVTPGTPLTLTCTASGFSLNNYYMSWVRQAPGKGLEWIGIISDSDNTYYASWAKGRFTISKTSTTVDLKITSPTTEDTATYFCARDWSLDSSSGYYYYDMDLWGPGTLVTVSA VL: AYDMTQTPASMEVAVGGTVTIKCQASQNIHSWLAWFQQKPGQPPKRLIYKASTLASGVPSRFKGSGSGTQFTLTISGVQSDDAATYYCQQGYSRSDGEHVFGGGTEVVVKR
[A] 0.000421

[Q] // Input: 10B8 (antibody, human IgG1, kappa, V domains shown, Rabbit-human chimeric anti-ICAM1: rabbit VH and VL on human IgG1 and kappa constant regions) VH: QSLEESGGRLVTPGGSLTLTCTVSGFSLSSYGMSWVRQAPGKGLEYIGWISFSGSAYYANWAKGRFTISKTSTTVDLKITSPTTEDTATYFCARGGDYGGSTYILNLWGPGTLVTVSS VL: AFELTQTPSSVEAAVGGTVTIKCQASESINSYLSWYQQKPGQPPKLLIYAASTLASGVSSRFKGSGSGTEFTLTISDLESADAATYYCQSYSGTISTSGGAFGGGTEVVVKR . Output its koff only.
[A] 0.00245

[Q] Please indicate koff recorded for 2E3 (antibody, human IgG1, kappa, V domains shown, Rabbit-human chimeric anti-ICAM1: rabbit VH and VL on human IgG1 and kappa constant regions) VH: QSVEESGGGLVKPGGTLTLTCTVSGFSLSSYAMGWVRQAPGKGLEYIGIIGSSGSTYYASWAKGRFTISKTSTTVDLKITSPTTEDTATYFCVRDPYDSFGDGYRLWGPGTLVTVSS VL: AYDMTQTPASVEVAVGGTVTIKCQASENIYRYLLWYQQKLGQRPSLLIYDASKLASGVPSRFKGSGSGTEFTLTISGVQSDDAATYYCQQAYSSSNVDNAFGGGTEVVVKR
[A] 0.000387

[Q] Return reported koff. Input binder: 3D8 (antibody, human IgG1, kappa, V domains shown, Rabbit-human chimeric anti-ICAM1: rabbit VH and VL on human IgG1 and kappa constant regions) VH: QSLEESGGDLVKPGASLTLTCTASGFSFSSSYWMCWVRQAPGKGLEWIACIDGGSAGYNYYATWAKGRFTISKTSSTTVTLQMTSLTAADRATYFCARGPGSSYNLWGPGTLVTVSS VL: DIVMTQTPASVEAAVGGTVTIKCQASQSISSYLSWYQQKPGQPPKLLIYRASTLASGVPSRFKGSGSGTEFTLTISDLESADAATYYCQSYVFGSSRSYDNAFGGGTEVVVKR
[A] 0.0348

[Q] Specify reported koff for the binder shown: 6G8 (antibody, human IgG1, kappa, V domains shown, Rabbit-human chimeric anti-ICAM1: rabbit VH and VL on human IgG1 and kappa constant regions) VH: QSVEESGGGLVKPGGTLTLTCTVSGFSLSSYAMGWVRQAPGKGLEYIGIIGSSGSTYYATWAKGRFTISKTSTTVDLKITSPTTEDTATYFCVRDPYDSYDAAYRLWGPGTLVTVSS VL: AYDMSQTPASVEVAVGGTVTIKCQASQSIYSYLSWYQQKPGQRPKLLIYDASKLASGVPSRFTGSGSGTEFTLTISGVQSDDAATYYCQQAYSSSNVDNVFGGGTEVVVKR
[A] 0.00126

meta.source: patent US20220002432A1
